Hi, to clarify the labels: label 1 covers melting point from 80 °C upward, label 0 covers anything below 80 °C.

Worked examples, 3 compounds total:
COc1ccc(C(Cl)=C(c2ccc(OC)cc2)c2ccc(OC)cc2)cc1 | label 1
CCOC(C)(C)C | label 0
O=C(c1ccccc1)N1CCCCC1 | label 0

Okay, now this compound:
Is melting point for Oc1c(Cl)cc(Cl)c(Cl)c1Cc1c(O)c(Cl)cc(Cl)c1Cl at or above 80 °C?
label 1

----------
assay.endpoint: melting point (°C)
Number in °C, nothing else.

In the examples that follow, each entry is paired with its recorded melting point.
CCN(CC)CCOC(=O)c1ccc(N)cc1 | 61
Fc1ccc(Oc2ccnc3cc(Cl)cc(Cl)c23)cc1 | 107
Cc1cc(C(C#N)c2ccc(Cl)cc2)c(Cl)cc1NC(=O)c1cc(I)cc(I)c1O (centres undefined) | 218

Assign melting point to the following record: Clc1cccc(Cl)c1Br
65

Assign melting point to the following record: CCOC(=O)C(C(=O)OCC)C(=O)OCC
29

Assign melting point to the following record: CCCCOCCOCCOC(=O)CCCCC(=O)OCCOCCOCCCC
-47

Assign melting point to the following record: OCCCCCCCCCCCCCCO
85.8

Assign melting point to the following record: C[C@]12CCC(=O)C=C1CC[C@@H]1[C@@H]2[C@@H](O)C[C@@]2(C)[C@H]1CC[C@]2(O)C(=O)CO
218

Assign melting point to the following record: Nc1ccc(Br)cc1
66.4

----------
Each record here notes measured melting point.
Number in °C, nothing else.

CCC(CC)C(C)(C)C | -99.3
CC(C)NCC(O)COc1ccc(COCCOC(C)C)cc1 (stereo not given) | 100
CCCCCCCCCCCCCCCCS | 19
CCCCNC(=S)NCCCC | 64
CCCCc1cccc2ccccc12 | -19.8
CCCCOC(=O)C1(O)c2ccccc2-c2ccccc21 | 71

Assign melting point to the following record: CC(C)Cl
-117

Assign melting point to the following record: COc1cc(OC)nc(NC(=O)NS(=O)(=O)c2ncccc2C(=O)N(C)C)n1
142

Assign melting point to the following record: CCC1(c2ccccc2)NC(=O)N(C)C1=O (stereo not given)
136

Assign melting point to the following record: Nc1nc[nH]n1
159

Assign melting point to the following record: CCC1(c2ccccc2)C(=O)N(COC)C(=O)N(COC)C1=O
117

----------
Categories are assigned from the measured melting point using these intervals: 0: < 40 °C; 1: ≥ 40 °C and < 100 °C; 2: ≥ 100 °C

Worked examples, 3 molecules total:
COC(=O)C(F)(F)C(F)(F)C(F)(F)F | 0
O=C(O)/C=C/c1ccccc1 | 2
C=C(CC(=O)OC)C(=O)OC | 0

Category lookup for the molecule CC1=C(C(=O)O)CCC1(C)C
2

Category lookup for the molecule Clc1ccc2cc(Cl)ccc2c1
2

Category lookup for the molecule C=C(Br)CC1(C(C)C)C(=O)NC(=O)NC1=O
2

Category lookup for the molecule CC(=O)CC(=O)OC(C)C
0

----------
Each record here notes measured boiling point.
Number in °C, nothing else.

In the examples that follow, each entry is paired with its recorded boiling point.
CC1(C)C(=O)Nc2ccccc21 | 300
O=C(c1ccccc1)N1CCCCC1 | 320
CCOc1cccc(Cl)c1 | 207
Cc1ccc2ccc(C)nc2c1 | 264
ClCC(Br)CBr (stereo not given) | 196
CCc1cc(CC)cc(CC)c1 | 216
FC(F)(Cl)C(Cl)(Cl)C(F)(F)Cl | 112
O=C(c1ccccc1)c1cccs1 | 300

Assign boiling point to the following record: COC(N)=O
177

Measured values drawn from the OPERA property sets (Mansouri et al. 2018) for this set.
